System: Neuregulin-1 EGF-like domain
Test: binders of neuregulin-1 EGF-like domain, primary screen, biochemical, small-molecule microarray, 635 nm fluorescence (AID 1081);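 note: binding of the protein to compounds printed on small-molecule microarray slides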
Details: small-molecule microarray binding, higher = more signal
Catalogue of composite z-score values

C=C[C@H](OC)[C@@H](OC(=O)Nc1ccc(SC)cc1)c1ccc(O)c(F)c1; 1.03
CCN1C(C)=C(C(=O)OC)[C@@H](c2ccccc2)N2C(=O)[C@](O)(C(=O)OC)[C@@H](c3ccccc3)C(C(=O)c3ccccc3)=C12; 0.708
O=C(CS)NCCCCCNC(=O)[C@H]1C[C@H]2C(=O)N[C@@H](Cc3ccccc3)C(=O)N2[C@H]1c1ccc(O)cc1; 1.23
CCCCO[C@H]1C[C@H]2C(Br)=C[C@@]1(CO)C(=O)[C@]21CO1; -0.802
COCCOC(=O)N1C(=O)[C@@]2(c3cc(C#CC4=CCCCC4)ccc31)[C@H](C(=O)NC[C@H](O)c1ccccc1)[C@H]1C(=O)O[C@H](c3ccccc3)[C@H](c3ccccc3)N1[C@@H]2c1ccc(OCCO)cc1; 1.26

Provide composite z-score, recorded with Neuregulin-1 EGF-like domain, of C=C(CCCC)/C(=C/C[C@@H](OC(=O)c1ccncc1)c1cccc(OCCO)c1)c1cc(C(=O)OC)ccc1OC 1.26

Provide composite z-score, recorded with Neuregulin-1 EGF-like domain, of O=C1O[C@@H](c2ccccc2)[C@@H](c2ccccc2)N2[C@@H](c3ccc(O)cc3)[C@]3(C(=O)Nc4ccc(C#CC5(O)CCCCCC5)cc43)[C@@H](C(=O)Nc3nc4ccccc4s3)[C@H]12 0.994

Provide composite z-score, recorded with Neuregulin-1 EGF-like domain, of CN1C2C=C(c3ccc(CO)cc3)C(C3C(=O)N(C(N)=O)C(=O)C32)C1c1cccs1 (stereo not given) 1.27

Provide composite z-score, recorded with Neuregulin-1 EGF-like domain, of NC(=O)NCC#Cc1ccc2c(c1)[C@]1(C(=O)N2)[C@H](c2ccccc2OCCO)N2[C@H](c3ccccc3)[C@H](c3ccccc3)OC(=O)[C@H]2[C@@H]1C(=O)N1CCN(c2ncccn2)CC1 1.07

Provide composite z-score, recorded with Neuregulin-1 EGF-like domain, of CCOC(=O)C1=CC[C@@H](c2ccc(-c3ccc(OCc4ccccc4)cc3)c(OC)c2)N(S(=O)(=O)c2ccc(C)cc2)[C@H]1c1ccccc1 0.952

Provide composite z-score, recorded with Neuregulin-1 EGF-like domain, of CCOC(=O)C1=CCC(c2cccc3ccccc23)N(S(=O)(=O)c2ccc(C)cc2)C1 (stereo not given) 1.01

Provide composite z-score, recorded with Neuregulin-1 EGF-like domain, of C[C@H]1NC(=O)[C@@H](C)NC(=O)[C@@]23C(=O)N[C@@H](Cc4ccccc4)C2[C@H](C)[C@@]2(C)O[C@H]2C3/C=C/C/C=C\CNC1=O (stereo not given in full) 0.812

Provide composite z-score, recorded with Neuregulin-1 EGF-like domain, of CCOC(=O)C[C@H]1[C@H](OC(=O)c2cc3ccccc3oc2=O)[C@@H](NC(=O)C2CCCCC2)c2cc(OCCCO)ccc2N1C(=O)c1ccc2ccccc2n1 0.675

Provide composite z-score, recorded with Neuregulin-1 EGF-like domain, of CCOC(=O)C[C@H]1[C@H](OC(=O)Cc2ccc3c(c2)OCO3)[C@@H](NC(=O)CC(C)C)c2cc(OCCCO)ccc2N1C(=O)c1ccccc1 0.855

Provide composite z-score, recorded with Neuregulin-1 EGF-like domain, of CC(c1ccccc1)C(O)C1C=CC2C(=O)N(C)C(=O)C2N1N(c1ccccc1)c1ccccc1 (stereo not given) 1.03
